Would you mind telling me the reported pIC50 of each entry?
MEASURED TARGET: EGFR (human) (UniProt P00533)
Sequence (P00533 whole entry, looked up): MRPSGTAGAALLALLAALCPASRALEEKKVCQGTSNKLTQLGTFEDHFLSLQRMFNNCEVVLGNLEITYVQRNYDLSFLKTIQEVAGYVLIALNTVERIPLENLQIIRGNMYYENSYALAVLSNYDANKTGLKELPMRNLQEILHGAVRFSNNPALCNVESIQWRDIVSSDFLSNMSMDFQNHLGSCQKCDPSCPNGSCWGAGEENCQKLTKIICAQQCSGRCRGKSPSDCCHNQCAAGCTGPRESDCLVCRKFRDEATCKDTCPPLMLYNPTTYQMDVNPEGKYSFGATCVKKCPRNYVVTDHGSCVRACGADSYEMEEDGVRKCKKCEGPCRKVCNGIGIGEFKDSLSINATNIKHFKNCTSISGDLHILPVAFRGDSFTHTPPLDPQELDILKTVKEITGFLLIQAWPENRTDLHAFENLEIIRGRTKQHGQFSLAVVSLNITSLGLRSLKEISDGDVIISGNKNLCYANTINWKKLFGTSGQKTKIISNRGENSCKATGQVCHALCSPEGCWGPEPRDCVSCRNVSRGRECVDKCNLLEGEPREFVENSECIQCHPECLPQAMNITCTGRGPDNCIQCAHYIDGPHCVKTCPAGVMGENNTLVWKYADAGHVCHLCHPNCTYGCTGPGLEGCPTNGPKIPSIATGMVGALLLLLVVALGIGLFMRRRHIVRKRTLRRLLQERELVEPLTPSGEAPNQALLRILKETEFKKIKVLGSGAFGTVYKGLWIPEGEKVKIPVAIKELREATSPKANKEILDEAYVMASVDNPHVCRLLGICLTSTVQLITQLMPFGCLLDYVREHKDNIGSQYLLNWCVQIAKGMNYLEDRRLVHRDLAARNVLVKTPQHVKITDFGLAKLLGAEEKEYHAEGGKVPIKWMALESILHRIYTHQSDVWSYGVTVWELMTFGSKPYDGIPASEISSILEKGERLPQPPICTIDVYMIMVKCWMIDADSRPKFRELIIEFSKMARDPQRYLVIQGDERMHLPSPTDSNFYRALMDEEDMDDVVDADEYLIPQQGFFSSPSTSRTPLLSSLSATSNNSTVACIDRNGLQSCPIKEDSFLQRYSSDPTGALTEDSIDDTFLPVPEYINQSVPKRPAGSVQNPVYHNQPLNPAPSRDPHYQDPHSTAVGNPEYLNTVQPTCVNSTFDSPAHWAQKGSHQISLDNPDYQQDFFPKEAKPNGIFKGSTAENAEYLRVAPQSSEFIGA
pIC50: −log10 of the molar value.

pIC50 for `CS(=O)(=O)CCNCc1nc(-c2ccc3ncnc(Nc4ccc(OCc5cccc(Br)c5)cc4)c3c2)cs1` is 4.30 to 4.60

pIC50 for `CS(=O)(=O)CCNCc1ccc(-c2cc3c(Nc4ccc5c(cnn5Cc5ccccc5)c4)ncnc3cc2F)o1` is > 5.30

pIC50 for `CS(=O)(=O)CCNCc1ccc(-c2ccc3ncnc(Nc4ccc(OCc5cccc(Br)c5)cc4)c3c2)o1` is > 5.30

pIC50 for `CS(=O)(=O)CCNCc1nc(-c2ccc3ncnc(Nc4ccc5c(cnn5Cc5ccccc5)c4)c3c2)cs1` is > 5.30

pIC50 for `CS(=O)(=O)CCNCc1coc(-c2ccc3ncnc(Nc4ccc(OCc5ccccc5)cc4)c3c2)c1` is > 5.30

pIC50 for `COc1cc2ncnc(Nc3ccc(OCc4ccccc4)cc3)c2cc1-c1ccc(CNCCS(C)(=O)=O)o1` is > 5.30

pIC50 for `CS(=O)(=O)CCNCc1ccc(-c2cc3c(Nc4ccc(OCc5ccccc5)cc4)ncnc3cc2F)o1` is > 5.30

pIC50 for `COc1cc2ncnc(Nc3ccc(S(=O)(=O)c4ccccc4)cc3)c2cc1-c1ccc(CNCCS(C)(=O)=O)o1` is > 5.30

pIC50 for `CS(=O)(=O)CCNCc1nc(-c2ccc3ncnc(Nc4ccc(OCc5cccc(F)c5)c(F)c4)c3c2)cs1` is > 5.30

pIC50 for `CS(=O)(=O)CCNCc1ccc(-c2cc3c(Nc4ccc(S(=O)(=O)c5ccccc5)cc4)ncnc3cn2)o1` is > 5.30

pIC50 for `COc1cc2ncnc(Nc3ccc4c(cnn4Cc4ccccc4)c3)c2cc1-c1ccc(CNCCS(C)(=O)=O)o1` is > 5.30

pIC50 for `COc1cc(Nc2ncnc3ccc(-c4csc(CNCCS(C)(=O)=O)n4)cc23)ccc1OCc1cccc(F)c1` is 4.60 to 5.30

pIC50 for `CS(=O)(=O)CCNCc1ccc(-c2ccc3ncnc(Nc4ccc(OCc5ccccc5)c(Cl)c4)c3c2)o1` is > 5.30

pIC50 for `CS(=O)(=O)CCNCc1nc(-c2ccc3ncnc(Nc4ccc(S(=O)(=O)c5ccccc5)cc4)c3c2)cs1` is > 5.30

pIC50 for `CS(=O)(=O)CCNCc1ccc(-c2ccc3ncnc(Nc4ccc(OCc5cccc(C(F)(F)F)c5)cc4)c3c2)o1` is 4.60 to 5.30
